Hey, just so you know, these numbers are from ChEMBL document CHEMBL5113479.

- method.notes: Cytotoxicity against human C-28/I2 cells
- Format: toxicity, cell-based
measured.metric: CC50 (µM)
# number only, unit µM dropped from output

I would be grateful if you could share the reported CC50 for `O=c1[nH]c2c(c(O)c1Cc1ccccc1)c(=O)n(-c1ccc(OC(F)(F)F)cc1)c(=O)n2-c1ccc(OC(F)(F)F)cc1` .
35.9

----------
- Test system: SK-MEL-2
- method.notes: Antiproliferative activity against human SK-MEL-2 cells assessed as inhibition of cell growth measured after 72 hrs by CCK8 assay
- Type: functional, cell-based
- run.parameters: SK-MEL-2, 72 h
measured.metric: IC50 (µM)
# unit: µM | format: bare number

>  <sample.smiles>
Cn1c(=O)c2c(NCC(=O)Nc3cccc(C(F)(F)F)c3)cc(N3CCOCC3)nc2n(C)c1=O

>  <IC50 / µM>
4.03

$$$$

Moving on to the next compound.
What IC50 value was documented for this compound, `CN1CCN(c2cc(NCC(=O)Nc3ccc(OC(F)(F)F)cc3)c3c(=O)n(C)c(=O)n(C)c3n2)CC1` ?
36.6

----------
- Test system: SK-HEP1
- method.notes: Antiproliferative activity against human SK-HEP1 cells assessed as inhibition of cell growth measured after 72 hrs by CCK8 assay
- Assay type: functional, cell-based
- run.parameters: SK-HEP1, 72 h
pIC50: −log10 of the molar value.
Entry flag: Y if pIC50 reaches 5; N if it does not.

Solved entries:
>  <sample.smiles>
Cc1cccc(NC(=O)CNc2cc(N3CCN(C)CC3)nc3c2c(=O)n(C)c(=O)n3C)c1

>  <discrete.label>
N

$$$$
>  <sample.smiles>
O=c1[nH]cc(F)c(=O)[nH]1

>  <discrete.label>
Y

$$$$

Does `CN1CCN(c2cc(NCC(=O)Nc3ccc(F)cc3)c3c(=O)n(C)c(=O)n(C)c3n2)CC1` have a reported pIC50 of at least 5?
N

----------
- Test system: A-375
- method.notes: Antiproliferative activity against human A-375 cells assessed as inhibition of cell growth measured after 72 hrs by CCK8 assay
- Assay type: functional, cell-based
- run.parameters: A-375, 72 h
measured.metric: IC50 (µM)
A number alone suffices; assume µM.

Example results:
>  <sample.smiles>
Cn1c(=O)c2c(NCC(=O)Nc3cccc(C(F)(F)F)c3)cc(N3CCOCC3)nc2n(C)c1=O

>  <measured.metric>
IC50

>  <unit.tag>
µM

>  <observed.value>
7.36

$$$$
>  <sample.smiles>
Cc1ccccc1NC(=O)CNc1cc(N2CCCC2)nc2c1c(=O)n(C)c(=O)n2C

>  <measured.metric>
IC50

>  <unit.tag>
µM

>  <observed.value>
7.6

$$$$
>  <sample.smiles>
CCn1c(=O)n(C)c(=O)c2c(Nc3ccccn3)cc(=O)n(C)c21

>  <measured.metric>
IC50

>  <unit.tag>
µM

>  <observed.value>
39.5

$$$$

Bench note: what IC50 did `CN(C)c1cc(NCC(=O)Nc2cccc(C(F)(F)F)c2)c2c(=O)n(C)c(=O)n(C)c2n1` show?
31.9

----------
- System: A-375
- method.notes: Antiproliferative activity against human A-375 cells assessed as inhibition of cell growth measured after 72 hrs by CCK8 assay
- Type: functional, cell-based
- run.parameters: A-375, 72 h
Readings of IC50 for the listed compounds

# example entries with known answers
>  <sample.smiles>
CN(C)c1cc(NCC(=O)Nc2cccc(Cl)c2)c2c(=O)n(C)c(=O)n(C)c2n1

>  <study.target>
A-375

>  <IC50>
> 50 µM

$$$$
>  <sample.smiles>
Cn1c(=O)c2c(NCC(=O)Nc3ccc(OC(F)(F)F)cc3)cc(N3CCCC3)nc2n(C)c1=O

>  <study.target>
A-375

>  <IC50>
> 50 µM

$$$$

Now for the compound whose IC50 we want.
Look up IC50: `Cn1c(=O)c2c(NCC(=O)Nc3ccc(F)cc3)cc(N3CCOCC3)nc2n(C)c1=O`
> 50 µM

----------
- Tested on: SK-MEL-2
- method.notes: Antiproliferative activity against human SK-MEL-2 cells assessed as inhibition of cell growth measured after 72 hrs by CCK8 assay
- Type: functional, cell-based
- run.parameters: SK-MEL-2, 72 h
pIC50: −log10 of the molar value.
measured.metric: pIC50

>  <sample.smiles>
CN(C)c1cc(NCC(=O)Nc2ccc(OC(F)(F)F)cc2)c2c(=O)n(C)c(=O)n(C)c2n1

>  <study.target>
SK-MEL-2

>  <pIC50>
< 4.30

$$$$
>  <sample.smiles>
CN(C)c1cc(NCC(=O)Nc2ccc(C(F)(F)F)cc2)c2c(=O)n(C)c(=O)n(C)c2n1

>  <study.target>
SK-MEL-2

>  <pIC50>
< 4.30

$$$$

Next item in the queue.
Would you kindly share the measured pIC50 for `CN(C)c1cc(NCC(=O)Nc2cccc(C(F)(F)F)c2)c2c(=O)n(C)c(=O)n(C)c2n1` ?
< 4.30

----------
- System: MCF7
- method.notes: Antiproliferative activity against human MCF7 cells assessed as inhibition of cell growth measured after 72 hrs by CCK8 assay
- Assay type: functional, cell-based
- run.parameters: MCF7, 72 h
pIC50: −log10 of the molar value.
measured.metric: pIC50

>  <sample.smiles>
Cn1c(=O)c2c(Nc3ccc(F)c(Cl)c3)cc(=O)n(C)c2n(C)c1=O

>  <pIC50>
< 4.30

$$$$
>  <sample.smiles>
CN(C)CCNc1c(Cc2ccccc2)c(=O)n(C)c2c1c(=O)n(C)c(=O)n2C

>  <pIC50>
< 4.30

$$$$

Now turn to the next molecule.
Please give the measured pIC50 for this molecule: `CCn1c(=O)n(C)c(=O)c2c(Nc3ccccc3C(=O)OC)cc(=O)n(C)c21`
< 4.30

----------
- Test system: SK-HEP1
- method.notes: Antiproliferative activity against human SK-HEP1 cells assessed as inhibition of cell growth measured after 72 hrs by CCK8 assay
- Format: functional, cell-based
- run.parameters: SK-HEP1, 72 h
measured.metric: IC50 (µM)
Entry rule: numbers only, all in µM.

>  <sample.smiles>
Cn1c(=O)c2c(NCC(=O)Nc3cccc(C(F)(F)F)c3)cc(N3CCOCC3)nc2n(C)c1=O

>  <study.target>
SK-HEP1

>  <measured.metric>
IC50

>  <observed.value>
11

$$$$
>  <sample.smiles>
Cc1ccccc1NC(=O)CNc1cc(N2CCCC2)nc2c1c(=O)n(C)c(=O)n2C

>  <study.target>
SK-HEP1

>  <measured.metric>
IC50

>  <observed.value>
10.7

$$$$
>  <sample.smiles>
CN1CCN(c2cc(NCC(=O)Nc3cccc(Cl)c3)c3c(=O)n(C)c(=O)n(C)c3n2)CC1

>  <study.target>
SK-HEP1

>  <measured.metric>
IC50

>  <observed.value>
2.04

$$$$

Next item in the queue.
Consider the compound shown here: `CN1CCN(c2cc(NCC(=O)Nc3ccc(OC(F)(F)F)cc3)c3c(=O)n(C)c(=O)n(C)c3n2)CC1` What is its recorded IC50?
34
